biological target: human LILRB2-His (human, UniProt Q8N423 22-460); test: SPR, Sierra Sensors MASS-2; antibody captured on anti-human Fc, LILRB2-His 65 to 0.27 nM, 1:1 Langmuir fit
Sequence (Q8N423 other isoform, or with tags, fused parts or gaps): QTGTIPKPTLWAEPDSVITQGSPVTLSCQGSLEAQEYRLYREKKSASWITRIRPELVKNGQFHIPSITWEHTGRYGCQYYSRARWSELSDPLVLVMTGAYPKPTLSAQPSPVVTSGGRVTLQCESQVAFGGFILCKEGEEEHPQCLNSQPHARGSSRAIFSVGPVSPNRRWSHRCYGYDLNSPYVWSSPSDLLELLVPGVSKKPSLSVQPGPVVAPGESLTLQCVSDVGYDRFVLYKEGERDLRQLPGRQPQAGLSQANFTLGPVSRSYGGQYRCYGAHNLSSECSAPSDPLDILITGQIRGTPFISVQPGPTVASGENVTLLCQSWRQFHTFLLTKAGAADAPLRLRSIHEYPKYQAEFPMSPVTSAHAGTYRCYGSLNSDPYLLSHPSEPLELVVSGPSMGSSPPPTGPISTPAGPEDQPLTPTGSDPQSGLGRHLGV
experimentalEndpoint: kon (M⁻¹ s⁻¹)
One number for each entry, in M⁻¹ s⁻¹.

Answered cases to consult:
J-19.h2 (antibody, human IgG4 S228P, kappa, V domains shown, Humanized, human IgG4 backbone) VH: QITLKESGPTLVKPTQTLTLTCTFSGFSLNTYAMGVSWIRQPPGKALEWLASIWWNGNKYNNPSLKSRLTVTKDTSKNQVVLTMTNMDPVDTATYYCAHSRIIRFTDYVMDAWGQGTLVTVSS VL: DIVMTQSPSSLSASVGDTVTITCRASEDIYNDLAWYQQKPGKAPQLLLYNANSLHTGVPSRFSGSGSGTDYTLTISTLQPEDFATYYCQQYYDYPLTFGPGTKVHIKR ... 521000
J-19.h3 (antibody, human IgG4 S228P, kappa, V domains shown, Humanized, human IgG4 backbone) VH: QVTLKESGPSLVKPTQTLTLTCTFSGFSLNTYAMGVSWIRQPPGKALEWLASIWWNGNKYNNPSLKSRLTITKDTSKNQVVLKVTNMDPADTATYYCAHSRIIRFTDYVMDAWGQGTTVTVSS VL: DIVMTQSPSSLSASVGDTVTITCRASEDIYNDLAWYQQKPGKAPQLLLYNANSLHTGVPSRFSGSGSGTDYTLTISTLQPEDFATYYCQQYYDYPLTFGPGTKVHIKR ... 518000
J-11 (antibody, human IgG4 S228P, kappa, V domains shown, Human IgG4 chimera of murine origin; also called J-11.h) VH: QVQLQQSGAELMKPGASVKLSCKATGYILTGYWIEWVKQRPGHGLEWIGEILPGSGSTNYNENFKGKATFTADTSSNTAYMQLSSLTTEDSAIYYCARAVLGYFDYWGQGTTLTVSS VL: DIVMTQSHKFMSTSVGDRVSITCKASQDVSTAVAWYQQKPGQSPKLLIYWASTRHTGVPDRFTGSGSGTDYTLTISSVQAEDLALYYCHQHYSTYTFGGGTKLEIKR ... 370000
J-19.h4 (antibody, human IgG4 S228P, kappa, V domains shown, Humanized, human IgG4 backbone) VH: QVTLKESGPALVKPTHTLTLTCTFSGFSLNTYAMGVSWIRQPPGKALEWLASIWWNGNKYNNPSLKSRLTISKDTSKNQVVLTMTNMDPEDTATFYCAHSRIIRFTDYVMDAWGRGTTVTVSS VL: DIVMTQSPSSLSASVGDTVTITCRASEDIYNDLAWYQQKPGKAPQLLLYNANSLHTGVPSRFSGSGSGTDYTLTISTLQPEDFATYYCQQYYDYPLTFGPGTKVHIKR ... 513000

Hi there! I need kon for each item below, if you can.
1. J-19.h1 (antibody, human IgG4 S228P, kappa, V domains shown, Humanized, human IgG4 backbone) VH: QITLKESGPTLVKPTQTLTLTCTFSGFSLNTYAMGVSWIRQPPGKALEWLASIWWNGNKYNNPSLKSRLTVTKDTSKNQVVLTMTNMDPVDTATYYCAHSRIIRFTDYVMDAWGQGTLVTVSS VL: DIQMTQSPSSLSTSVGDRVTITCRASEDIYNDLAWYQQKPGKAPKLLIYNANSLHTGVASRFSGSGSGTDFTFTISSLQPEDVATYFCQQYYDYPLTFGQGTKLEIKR
2. J-19 (antibody, human IgG4 S228P, kappa, V domains shown, Human IgG4 chimera from a rat immunization; also called J-19.h) VH: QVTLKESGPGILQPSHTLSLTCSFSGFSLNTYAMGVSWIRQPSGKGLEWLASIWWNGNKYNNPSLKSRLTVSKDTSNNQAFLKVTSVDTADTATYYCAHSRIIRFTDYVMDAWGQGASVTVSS VL: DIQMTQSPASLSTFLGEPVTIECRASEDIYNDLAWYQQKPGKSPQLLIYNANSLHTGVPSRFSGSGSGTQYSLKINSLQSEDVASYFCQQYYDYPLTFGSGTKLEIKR

## Output
391000
515000

All figures here come from patent US20200339690A1.
